tested on: NCI-H522 lung; assay: NCI tumour cell line growth inhibition, 48 h
ASSAY ENDPOINT: TGI

Before answering, review these 5 worked examples.
| COMPOUND | RESULT |
| --- | --- |
| CC(C)[C@H](COC(C)(C)C)N=CN1CSc2ccccc21 | > 100 µM |
| C[C@H](C(=O)N1C(=O)O[C@@H](c2ccccc2)[C@H]1C)[C@H](c1ccccc1)N(Cc1ccccc1)OC(=O)c1ccccc1 | > 100 µM |
| C=C(C)[C@@H]1CC[C@]2(C)[C@H](CC=C3[C@@H]4CC(C)(C)CC[C@]4(C(=O)OC)CC[C@]32C)[C@@]1(C)CC/C(N)=N/O | 4.12 µM |
| COc1ccc(C(=O)N=C2N(c3ccccc3)C(=Nc3ccccc3)C(=Nc3ccccc3)N2c2ccccc2)cc1 | > 100 µM |
| c1csc(-c2cc(-c3ccsc3)c(-c3cccs3)s2)c1 | > 100 µM |

Exam item: Using known records, supply TGI for `Cc1occc1C(=S)Nc1ccc(Cl)c(C(=O)OCC2CC2)c1`
Marked response: > 100 µM

Exam item: Provide TGI value for the following compound: `N#C/C(=C/c1cccs1)c1cccs1`
Marked response: > 100 µM

Exam item: Retrieve TGI measured for `CCC(=O)[O-].CCC(=O)[O-].N.N.N.N.[Co+3].[O-][Cl+3]([O-])([O-])[O-]` and print it.
Marked response: > 100 µM

Exam item: Could you please provide reported TGI for Cc1ccc(S(=O)(=O)NC(C)C(=O)O)cc1 (stereo not given) ? Thanks!
Marked response: > 100 µM

Exam item: Give recorded TGI. `O=C(CCNC(=O)OCc1ccccc1)OCCCNC(=O)OCc1ccccc1`
Marked response: > 100 µM

Exam item: Quote TGI reported for `O=C(O/N=C1/CCC/C1=C\c1ccccc1)c1ccc(Cl)cc1` please.
Marked response: > 100 µM

Exam item: Provide measured TGI value, entry: `O=C1C=CC(=O)c2c(O)c(Nc3ccc(OC(F)(F)F)cc3)c(Cl)c(O)c21`
Marked response: 2.87 µM

Exam item: Quickly give me recorded TGI for `CN([N-]C(=O)CC(=O)[N-]N(C)C(=S)c1ccccc1)C(=S)c1ccccc1.[Cu+2]`
Marked response: 0.0281 µM

Exam item: Name the recorded TGI of the compound listed here: `CNNC1=NS(=O)(=O)c2cc(C(=O)OC)c(Cl)cc2S1`
Marked response: > 10 µM

Exam item: Determine its reported TGI: COc1cc(C(C)c2cc3c(cc2OCCOCCOc2cc4c(cc2C(C)c2cc(OC)c(OC)c(OC)c2)OCO4)OCO3)cc(OC)c1OC (stereo not given)
Marked response: > 100 µM

Exam item: Answer with reported TGI of `Nc1nonc1-c1noc(-c2nonc2N)[n+]1[O-]`
Marked response: 28 µM

Exam item: Supply recorded TGI for `CCOc1ccccc1N=C(NC(=O)CC)SC` here.
Marked response: > 100 µM

Exam item: Retrieve TGI measured for `O=C1c2ccccc2C(=O)c2[nH]c(=O)c(/C=N/Nc3ccc([N+](=O)[O-])cc3)nc21` and print it.
Marked response: 13 µM

Exam item: Return TGI for the following compound: CC(=O)OCC1OC(Sc2nc(-c3ccc(C)cc3)c(C#N)c(=O)n2C2OC(COC(C)=O)C(OC(C)=O)C(OC(C)=O)C2OC(C)=O)C(OC(C)=O)C(OC(C)=O)C1OC(C)=O (stereo not given)
Marked response: > 100 µM

Exam item: Identify TGI associated with the compound CCCCCCCCCCCCCCCCCCNc1ccn(C2OC(COP(=O)(O)OCCCCCCCCCCCCCCCC)C(O)C2O)c(=O)n1 (stereo not given)
Marked response: > 100 µM
